Provenance of the data: paper PMC4260915

molecular target: T1, Rat tail collagen type I (rat, UniProt P02454 152-1207; P02466 86-1125); assay: solid-phase collagen binding assay (fluorescence of bound probe, plate reader); rat tail collagen type I or BSA immobilised in wells of a 96-well plate, blocked with 2% BSA; probe dilutions 0.1–50 µM, 1–1.5 hours at room temperature; 20 mM HEPES pH 7.2, 150 mM NaCl; apparent overall Kd; details: both partners purified
T1 construct: collagen alpha-1(I) chain, rat; collagen alpha-2(I) chain, rat; Immobilised as a collagen matrix formed on pH neutralisation; source: bought: Sigma-Aldrich, cat. no; C7661
T1 sequence (P02454 152-1207, chain 1 of 2): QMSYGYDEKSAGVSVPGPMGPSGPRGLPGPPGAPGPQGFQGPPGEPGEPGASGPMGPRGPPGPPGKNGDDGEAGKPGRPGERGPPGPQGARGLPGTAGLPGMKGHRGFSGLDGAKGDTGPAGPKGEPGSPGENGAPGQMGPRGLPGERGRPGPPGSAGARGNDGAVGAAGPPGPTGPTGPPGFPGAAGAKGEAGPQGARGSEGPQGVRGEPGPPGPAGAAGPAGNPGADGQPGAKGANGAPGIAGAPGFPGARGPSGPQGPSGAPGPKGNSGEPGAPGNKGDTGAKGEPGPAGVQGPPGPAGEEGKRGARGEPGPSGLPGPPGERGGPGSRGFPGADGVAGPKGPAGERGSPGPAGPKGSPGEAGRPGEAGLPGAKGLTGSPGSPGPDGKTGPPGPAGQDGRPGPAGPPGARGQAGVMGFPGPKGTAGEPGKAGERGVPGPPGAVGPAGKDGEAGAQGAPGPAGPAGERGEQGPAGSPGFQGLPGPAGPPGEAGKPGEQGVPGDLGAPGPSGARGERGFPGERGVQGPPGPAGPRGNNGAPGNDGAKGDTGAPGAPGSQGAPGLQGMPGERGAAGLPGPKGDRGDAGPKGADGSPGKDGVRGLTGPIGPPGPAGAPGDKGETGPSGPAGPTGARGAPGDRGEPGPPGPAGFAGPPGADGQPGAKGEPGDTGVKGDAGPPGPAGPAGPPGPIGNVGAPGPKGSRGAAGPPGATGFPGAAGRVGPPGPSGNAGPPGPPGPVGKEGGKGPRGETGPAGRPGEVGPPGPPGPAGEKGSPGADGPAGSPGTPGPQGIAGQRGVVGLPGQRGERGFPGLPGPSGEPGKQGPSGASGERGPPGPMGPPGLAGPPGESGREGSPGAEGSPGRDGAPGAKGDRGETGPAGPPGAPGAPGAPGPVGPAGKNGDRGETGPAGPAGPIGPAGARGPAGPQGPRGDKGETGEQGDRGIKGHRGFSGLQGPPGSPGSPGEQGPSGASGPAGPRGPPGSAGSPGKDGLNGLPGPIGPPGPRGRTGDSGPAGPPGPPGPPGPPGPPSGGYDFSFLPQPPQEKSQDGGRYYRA
T1 sequence (P02466 86-1125, chain 2 of 2): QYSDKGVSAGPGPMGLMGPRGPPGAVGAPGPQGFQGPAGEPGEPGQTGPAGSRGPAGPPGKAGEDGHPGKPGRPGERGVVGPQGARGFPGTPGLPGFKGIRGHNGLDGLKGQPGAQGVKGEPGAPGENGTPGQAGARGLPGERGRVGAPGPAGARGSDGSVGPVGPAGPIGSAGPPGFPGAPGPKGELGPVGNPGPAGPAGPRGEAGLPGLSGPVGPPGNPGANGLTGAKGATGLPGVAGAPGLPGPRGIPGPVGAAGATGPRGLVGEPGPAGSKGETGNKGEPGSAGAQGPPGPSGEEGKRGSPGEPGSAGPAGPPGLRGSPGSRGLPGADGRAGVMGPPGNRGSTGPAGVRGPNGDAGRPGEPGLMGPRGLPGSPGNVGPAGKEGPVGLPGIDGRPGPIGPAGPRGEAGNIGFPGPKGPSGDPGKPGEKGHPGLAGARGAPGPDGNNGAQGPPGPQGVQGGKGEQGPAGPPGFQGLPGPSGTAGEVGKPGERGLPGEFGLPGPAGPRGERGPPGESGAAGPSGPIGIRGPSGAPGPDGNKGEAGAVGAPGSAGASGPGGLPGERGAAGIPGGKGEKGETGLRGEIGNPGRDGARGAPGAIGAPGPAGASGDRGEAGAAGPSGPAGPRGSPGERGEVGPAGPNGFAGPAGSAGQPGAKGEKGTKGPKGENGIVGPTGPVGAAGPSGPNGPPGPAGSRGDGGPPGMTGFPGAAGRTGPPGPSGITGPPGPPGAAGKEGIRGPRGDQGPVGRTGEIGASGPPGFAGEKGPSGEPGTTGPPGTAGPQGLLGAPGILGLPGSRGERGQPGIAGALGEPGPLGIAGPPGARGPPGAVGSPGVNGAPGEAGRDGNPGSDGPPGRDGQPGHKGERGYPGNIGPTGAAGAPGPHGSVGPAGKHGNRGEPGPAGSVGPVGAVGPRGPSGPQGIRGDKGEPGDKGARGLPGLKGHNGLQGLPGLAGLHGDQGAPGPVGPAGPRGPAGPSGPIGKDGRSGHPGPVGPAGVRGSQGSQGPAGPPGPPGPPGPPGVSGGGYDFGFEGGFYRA
pKd: −log10 of the molar value.
reported-endpoint: pKd

binder mCherry-CNA35 (domain or fragment, CNA35: domains N1 and N2 of the A-region of Staphylococcus aureus collagen adhesion protein, amino acids 30-344; Order: His-tag, thrombin cleavage site, mCherry, flexible linkage of about 20 amino acids, CNA35; 64.6 kDa; also called FP-CNA35; N-terminal fusion of mCherry to CNA35; not shown: mCherry, N-terminal, kept) ARDISSTNVTDLTVSPSKIEDGGKTTVKMTFDDKNGKIQNGDMIKVAWPTSGTVKIEGYSKTVPLTVKGEQVGQAVITPDGATITFNDKVEKLSDVSGFAEFEVQGRNLTQTNTSDDKVATITSGNKSTNVTVHKSEAGTSSVFYYKTGDMLPEDTTHVRWFLNINNEKSYVSKDITIKDQIQGGQQLDLSTLNINVTGTHSNYYSGQSAITDFEKAFPGSKITVDNTKNTIDVTIPQGYGSYNSFSINYKTKITNEQQKEFVNNSQAWYQEHGKEEVNGKSFNHTVHNINANAGIEGTVKGELKVLKQDKDTKA , pKd observed: ~6.00

binder tdTomato-CNA35 (domain or fragment, CNA35: domains N1 and N2 of the A-region of Staphylococcus aureus collagen adhesion protein, amino acids 30-344; Order: His-tag, thrombin cleavage site, tdTomato, flexible linkage of about 20 amino acids, CNA35; 92.5 kDa; also called FP-CNA35; N-terminal fusion of tdTomato to CNA35; not shown: tdTomato, N-terminal, kept) ARDISSTNVTDLTVSPSKIEDGGKTTVKMTFDDKNGKIQNGDMIKVAWPTSGTVKIEGYSKTVPLTVKGEQVGQAVITPDGATITFNDKVEKLSDVSGFAEFEVQGRNLTQTNTSDDKVATITSGNKSTNVTVHKSEAGTSSVFYYKTGDMLPEDTTHVRWFLNINNEKSYVSKDITIKDQIQGGQQLDLSTLNINVTGTHSNYYSGQSAITDFEKAFPGSKITVDNTKNTIDVTIPQGYGSYNSFSINYKTKITNEQQKEFVNNSQAWYQEHGKEEVNGKSFNHTVHNINANAGIEGTVKGELKVLKQDKDTKA , pKd observed: ~6.00

Here is another binder to look at.
binder CNA35-EGFP (domain or fragment, CNA35: domains N1 and N2 of the A-region of Staphylococcus aureus collagen adhesion protein, amino acids 30-344; Order: His-tag, thrombin cleavage site, CNA35, flexible linkage of about 20 amino acids, EGFP; 65.1 kDa; also called CNA35-FP; C-terminal fusion of EGFP to CNA35; not shown: EGFP, C-terminal, kept) ARDISSTNVTDLTVSPSKIEDGGKTTVKMTFDDKNGKIQNGDMIKVAWPTSGTVKIEGYSKTVPLTVKGEQVGQAVITPDGATITFNDKVEKLSDVSGFAEFEVQGRNLTQTNTSDDKVATITSGNKSTNVTVHKSEAGTSSVFYYKTGDMLPEDTTHVRWFLNINNEKSYVSKDITIKDQIQGGQQLDLSTLNINVTGTHSNYYSGQSAITDFEKAFPGSKITVDNTKNTIDVTIPQGYGSYNSFSINYKTKITNEQQKEFVNNSQAWYQEHGKEEVNGKSFNHTVHNINANAGIEGTVKGELKVLKQDKDTKA , pKd observed: ~6.00
